Biological target: B-Raf V600E (Homo sapiens, UniProt P15056, V600E)
Sequence (P15056 whole entry V600E): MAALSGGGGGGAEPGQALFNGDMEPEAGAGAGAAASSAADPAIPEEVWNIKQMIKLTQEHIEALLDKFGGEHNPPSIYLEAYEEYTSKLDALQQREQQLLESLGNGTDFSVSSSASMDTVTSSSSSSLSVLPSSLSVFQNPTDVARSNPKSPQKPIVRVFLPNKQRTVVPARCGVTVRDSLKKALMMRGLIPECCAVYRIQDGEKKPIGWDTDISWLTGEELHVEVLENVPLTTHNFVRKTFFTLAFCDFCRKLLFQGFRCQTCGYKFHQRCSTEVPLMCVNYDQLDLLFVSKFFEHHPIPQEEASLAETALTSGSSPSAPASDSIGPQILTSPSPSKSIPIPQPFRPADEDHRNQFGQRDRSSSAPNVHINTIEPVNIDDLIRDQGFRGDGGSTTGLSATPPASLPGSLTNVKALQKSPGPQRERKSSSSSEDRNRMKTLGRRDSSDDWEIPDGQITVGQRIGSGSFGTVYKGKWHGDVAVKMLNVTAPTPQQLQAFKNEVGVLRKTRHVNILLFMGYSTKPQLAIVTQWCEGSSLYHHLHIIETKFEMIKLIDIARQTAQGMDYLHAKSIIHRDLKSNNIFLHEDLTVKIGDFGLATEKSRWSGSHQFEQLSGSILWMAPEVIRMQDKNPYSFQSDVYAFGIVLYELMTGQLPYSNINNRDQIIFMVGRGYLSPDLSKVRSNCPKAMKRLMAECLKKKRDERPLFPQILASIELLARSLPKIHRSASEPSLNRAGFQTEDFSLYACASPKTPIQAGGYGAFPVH
Experiment: B-Raf V600E biochemical kinase inhibition (AlphaScreen, biotin-MEK1 substrate)
Settings: 100 μM ATP
Experimental: Compounds to be tested are diluted in dimethyl sulfoxide to a concentration of 0.1 mM. These are serially diluted 15 μL into 30 μL of dimethyl sulfoxide seven times in 96 well plates for a total of 8 dilution points, and for each dilution point 1 μL is added to a well of an assay plate. […] The reaction is started with addition of 10 μL of 200 μM ATP (i.e. final 100 μM ATP). […] The plates are incubated for 3 hours at room temperature and read on Envision reader (Perkin Elmer). […]
pIC50: −log10 of the molar value.
measurement-type: pIC50

structure-smiles-string	value
CCCS(=O)(=O)Nc1ccc(F)c(C(=O)c2c[nH]c3ncc(-c4ccc(S(=O)(=O)CC)cc4)cc23)c1F	> 7.00
CCCS(=O)(=O)Nc1ccc(F)c(C(=O)c2c[nH]c3ncc(-c4ccc(C)nc4F)cc23)c1F	> 7.00
CCCS(=O)(=O)Nc1ccc(F)c(C(=O)c2c[nH]c3ncc(-c4ccc(OC)nc4OC)cc23)c1F	> 7.00
CCCS(=O)(=O)Nc1ccc(F)c(C(=O)c2c[nH]c3ncc(-c4ccnc(F)c4)cc23)c1F	> 8.00
N#Cc1ccnc2[nH]cc(C(=O)c3c(F)ccc(NS(=O)(=O)c4cccc(F)c4)c3F)c12	> 8.00
N#Cc1cnc2[nH]cc(C(=O)c3cccc(NS(=O)(=O)c4cc(F)ccc4F)c3F)c2c1	> 8.00
N#Cc1ccnc2[nH]cc(C(=O)c3c(F)ccc(NS(=O)(=O)c4cccnc4)c3F)c12	> 8.00
CCCS(=O)(=O)Nc1ccc(F)c(C(=O)c2c[nH]c3ncc(-c4ccc(NC(C)=O)nc4)cc23)c1F	> 8.00
